Tested on: 991263-137-R1-J2-PDC complex spheroid viability;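 also: spheroids exposed to compounds for 7 days before readout; 100% = DMSO vehicle control viability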
assay_name: Anticancer human tumor 991263-137-R1-J2-PDC patient-derived colon adenocarcinoma cell line growth inhibition [POLQ]
stated_conditions: second compound 0.1 µM; first compound 0.0316 µM; stronger effect = lower value
property_label: viability, T/C
Express the reported value numerically, then name its unit.

Lab note: CC1COCCN1c1cc(-c2ccnn2C)c2ccnc(-c3ccn[nH]3)c2n1 (stereo not given) + Nc1ccc(C#CCN(C(=O)Cc2ncc(C(F)(F)F)cc2C(F)(F)F)c2ccc(F)cc2)nn1 gave viability, T/C of 105%

Lab note: CC1COCCN1c1cc(C2(S(C)(=N)=O)CC2)nc(-c2ccnc3[nH]ccc23)n1 (stereo not given) + Cc1cccc(N(C)C(=O)C2C(O)CCN2c2nc(C)cc(C(F)(F)F)c2C#N)c1 gave viability, T/C of 101%

Lab note: Cn1ncnc1[C@H]1c2n[nH]c(=O)c3cc(F)cc(c23)N[C@@H]1c1ccc(F)cc1 + COC1C(OC(N)=O)C(O)C(Oc2ccc3c(O)c(NC(=O)c4ccc(O)c(CC=C(C)C)c4)c(=O)oc3c2C)OC1(C)C gave viability, T/C of 105%

Lab note: CCc1cc2c(N3CCc4c(cc(Cn5ccnc5)cc4-c4cn(C)nc4C(F)(F)F)C3=O)ccnc2c(OC)n1 + Cc1cccc(N(C)C(=O)C2C(O)CCN2c2nc(C)cc(C(F)(F)F)c2C#N)c1 gave viability, T/C of 103%

Lab note: CNCc1ccc(-c2[nH]c3cc(F)cc4c3c2CCNC4=O)cc1 + Nc1ccc(C#CCN(C(=O)Cc2ncc(C(F)(F)F)cc2C(F)(F)F)c2ccc(F)cc2)nn1 gave viability, T/C of 112%
